System: NCI/ADR-RES ovarian
Protocol notes: NCI tumour cell line growth inhibition, 48 h
Recorded endpoint: TGI (µM)
One number for each entry, in µM.

Compound	Assayed target	TGI, µM
CCCCCC1CC=CC(=O)O1 (stereo unspecified)	NCI/ADR-RES ovarian	25.6
COc1ccc(-c2csc(=Nc3ccccc3)n2CCCN(C)C)cc1	NCI/ADR-RES ovarian	54.3
COc1cccc(CCC2CCCN(c3cc(C)nc(N)n3)C2)c1 (stereo unspecified)	NCI/ADR-RES ovarian	5.9

For every record below, what is its TGI?
1. COc1cc2nc(Nc3cccc(Br)c3)nc(Nc3cccc(Br)c3)c2cc1OC
2. CCOC(=O)[C@@H](C)C[C@H](Cc1ccccc1)NC(=O)c1nc([C@@H](C[C@H](C(C)C)N(C)C(=O)[C@@H](NC(=O)[C@H]2CCCCN2C)C(C)C)OC(C)=O)sc1CCOCc1ccccc1
3. CCOC(=O)C1=C(C)N=c2s/c(=C\c3ccccc3O)c(=O)n2C1c1ccc(OC)c2ccccc12 (stereo unspecified)
4. O=P1(Oc2ccccc2)N=P(c2ccccc2)(c2ccccc2)C=C(c2ccc(Cl)cc2)N1 (stereo unspecified)
5. COc1ccc(N=Cc2c(O)ccc3c2oc2cc(Cl)c(O)c(Cl)c23)cc1
6. CC12OOC(c3ccccc31)c1c2ccc2ccccc12 (stereo unspecified)

37.5
3.98
43.5
27.9
50.7
24.1

For every record below, what is its TGI?
1. Cc1c2ccnc(C(=O)NCCN(C)C)c2cc2c3cc(O)ccc3n(C)c12
2. NC1=CC(=O)c2cccnc2C1=O

6.64
11.2
